FYI, the data here is from ChEMBL document CHEMBL1961873.

Molecular target: Serine/threonine-protein kinase MARK2 (Homo sapiens) (UniProt Q7KZI7)
Sequence (Q7KZI7 whole entry): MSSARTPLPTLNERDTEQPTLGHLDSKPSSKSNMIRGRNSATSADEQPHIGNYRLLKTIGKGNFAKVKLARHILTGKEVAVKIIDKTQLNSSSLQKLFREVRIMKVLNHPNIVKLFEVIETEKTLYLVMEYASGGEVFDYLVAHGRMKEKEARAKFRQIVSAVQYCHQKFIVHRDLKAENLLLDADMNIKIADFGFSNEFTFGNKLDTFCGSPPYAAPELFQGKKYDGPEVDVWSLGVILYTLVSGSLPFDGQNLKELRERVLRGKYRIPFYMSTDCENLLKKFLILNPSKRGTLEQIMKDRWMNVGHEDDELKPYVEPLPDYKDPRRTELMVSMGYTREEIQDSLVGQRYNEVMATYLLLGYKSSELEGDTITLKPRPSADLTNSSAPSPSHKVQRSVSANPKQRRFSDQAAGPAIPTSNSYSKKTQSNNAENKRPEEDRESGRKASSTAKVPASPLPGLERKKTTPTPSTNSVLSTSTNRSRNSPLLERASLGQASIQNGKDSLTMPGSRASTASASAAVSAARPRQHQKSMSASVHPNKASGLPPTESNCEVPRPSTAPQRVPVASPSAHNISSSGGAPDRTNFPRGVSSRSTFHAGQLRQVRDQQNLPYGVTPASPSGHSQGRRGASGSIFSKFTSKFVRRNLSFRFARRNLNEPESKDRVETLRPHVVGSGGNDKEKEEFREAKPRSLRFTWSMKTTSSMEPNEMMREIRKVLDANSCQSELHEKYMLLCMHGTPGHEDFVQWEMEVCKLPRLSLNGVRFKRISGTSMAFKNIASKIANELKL
Details: at 1 µM
Description: GSK_PKIS: PAR-1Balpha mean inhibition at 1 uM [Nanosyn]
Property: inhibition (%)
Numbers only; they are read as %.

Worked examples follow.
Compound: N#Cc1cccc(Nc2nccc(-c3cnn4ncccc34)n2)c1
inhibition (%): 9.5
//
Compound: COc1cc2ncn(-c3cc(OCc4ccccc4S(C)(=O)=O)c(C#N)s3)c2cc1OC
inhibition (%): 70.7

Prompt: Missing value: inhibition, Serine/threonine-protein kinase MARK2 (Homo sapiens) (UniProt Q7KZI7), entry COc1cc2ncnc(Nc3ccc(C)c(O)c3)c2cc1OC . Fill in?
Completion: 0.64

Prompt: What would you report for N#Cc1c(NC(=O)c2ccccc2F)sc2c1CCCC2 ?
Completion: 3.45

Prompt: Try this compound too: CCS(=O)(=O)c1ccc(OC)c(Nc2nccc(N(C)c3ccc4c(C)n[nH]c4c3)n2)c1
Completion: 3.54

Prompt: O=C(Nc1ccc(Oc2ccc3[nH]c(NC(=O)c4ccco4)nc3c2)cc1)Nc1cc(C(F)(F)F)ccc1F , same question.
Completion: 0.83

---

Biological target: Misshapen-like kinase 1 (Homo sapiens);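 further: mean inhibition value reported, from GSK PKIS kinase profiling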
Settings: at 0.1 µM
Decide by inhibition: equal to or exceeding 4% means yes (1), less means no (0).

Completed entries (count: 5):
Chem smiles: NS(=O)(=O)c1ccc(-c2cc3ccncc3cc2OCc2ccccc2)cc1
Class label: no (0)

Chem smiles: CN(c1ccc(NC(=O)Nc2ccc(OC(F)(F)F)cc2)cc1)c1ccnc(Nc2cccc(S(N)(=O)=O)c2)n1
Class label: yes (1)

Chem smiles: NS(=O)(=O)c1ccc(N/N=C2\C(=O)Nc3ccc(Cl)cc32)cc1
Class label: yes (1)

Chem smiles: O=S(=O)(CCOCc1ccc(-c2ccc3ncnc(Nc4ccc(OCc5cccc(F)c5)c(Cl)c4)c3c2)o1)c1ccccc1
Class label: no (0)

Chem smiles: COc1cc(/C=N/Nc2ncnc3c2cnn3C(C)C)ccc1O
Class label: yes (1)

Prompt: Hello, I need to know if Oc1cccc(-c2nc(-c3ccccc3)[nH]c2-c2ccncc2)c1 has measured inhibition not below 4%. Thanks!
Completion: yes (1)

Prompt: Also check C[C@@H](Oc1cc(-n2cnc3ccc(OCC4CCN(C)CC4)cc32)sc1C(N)=O)c1ccccc1C(F)(F)F
Completion: no (0)

Prompt: And what about the molecule CC(C)c1ccc2c(c1)NC(=O)/C2=N/Nc1ccc(S(N)(=O)=O)cc1 ?
Completion: yes (1)

---

Below: a set of entries, each annotated with reported inhibition.
Molecular target: Rhodopsin kinase GRK7 (Homo sapiens);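 further: mean percent inhibition of GRK7, profiled as part of the GSK PKIS screen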
Conditions: at 1 µM
Field format: number, assumed %, no unit text.

Prompt: Which inhibition is listed for Cc1cc(-c2ccccn2)cc(C)c1/C=C/c1cncc(-c2nn[nH]n2)c1 ?
Completion: 7.66

Prompt: Please give the result for CCn1c(-c2nonc2N)nc2c(C#CC(C)(C)O)nc(OCCNC)cc21 too.
Completion: 2.53

Prompt: Record: O=C(Nc1ccc(Oc2ccc3[nH]c(NC(=O)c4ccco4)nc3c2)cc1)Nc1cc(C(F)(F)F)ccc1F
Completion: -4.51

Prompt: // same read-out, input: CCOc1nccc2c1nc(-c1nonc1N)n2CC
Completion: 8.26

Prompt: For Cc1ccc(O)cc1Nc1ccnc2ccc(S(C)(=O)=O)cc12 then?
Completion: 9.64

---

Target: Fibroblast growth factor receptor 4 (Homo sapiens) (UniProt P22455);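 further: reported figure is the averaged percent inhibition of FGFR4, from the GSK PKIS kinase screening panel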
Sequence (P22455 22-802 limits assumed): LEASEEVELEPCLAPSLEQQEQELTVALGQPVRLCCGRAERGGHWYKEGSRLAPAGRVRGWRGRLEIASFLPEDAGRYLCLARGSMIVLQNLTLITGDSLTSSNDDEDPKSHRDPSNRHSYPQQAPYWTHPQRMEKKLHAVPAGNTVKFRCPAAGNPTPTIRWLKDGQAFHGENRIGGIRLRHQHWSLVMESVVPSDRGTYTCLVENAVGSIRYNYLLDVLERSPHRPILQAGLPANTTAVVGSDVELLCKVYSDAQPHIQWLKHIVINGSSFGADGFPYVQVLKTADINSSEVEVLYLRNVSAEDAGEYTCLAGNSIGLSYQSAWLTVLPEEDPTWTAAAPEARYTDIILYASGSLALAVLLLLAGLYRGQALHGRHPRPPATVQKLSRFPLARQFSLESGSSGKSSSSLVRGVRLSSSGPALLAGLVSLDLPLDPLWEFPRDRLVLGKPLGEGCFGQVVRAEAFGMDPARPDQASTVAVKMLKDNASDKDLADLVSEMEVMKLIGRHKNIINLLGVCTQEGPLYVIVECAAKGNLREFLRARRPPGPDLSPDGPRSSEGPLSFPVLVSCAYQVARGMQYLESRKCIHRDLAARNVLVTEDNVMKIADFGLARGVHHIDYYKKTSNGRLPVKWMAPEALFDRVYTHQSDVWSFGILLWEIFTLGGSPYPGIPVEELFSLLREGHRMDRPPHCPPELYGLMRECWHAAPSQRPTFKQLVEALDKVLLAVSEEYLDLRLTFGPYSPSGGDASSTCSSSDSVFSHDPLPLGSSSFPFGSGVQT
Details: at 1 µM
// inhibition lookup, one value per entry
Express your answer in %, writing the number without its unit.

Worked cases, answers included:
Chem smiles: NC(=O)c1cccc(Nc2nccc(Nc3cccc(F)c3)n2)c1
Value: 1.79

Chem smiles: O=S(=O)(CCOCc1ccc(-c2ccc3ncnc(Nc4ccc(OCc5cccc(F)c5)c(Cl)c4)c3c2)o1)c1ccccc1
Value: 0.08

Chem smiles: O=C1Nc2ccc(-c3cccnc3)cc2C1=Cc1cc(Br)c(O)c(Br)c1
Value: 3.07

Chem smiles: CCn1c(-c2nonc2N)nc2c(C#CC(C)(C)O)nc(OCCNC)cc21
Value: 1.88

Here is another compound to look at.
Prompt: Which inhibition value belongs to COc1cc2ncn(-c3cc(OCc4ccccc4S(C)(=O)=O)c(C#N)s3)c2cc1OC ?
Completion: 1.47

---

Biological target: Phosphatidylinositol 4,5-bisphosphate 3-kinase catalytic subunit delta isoform (Homo sapiens) (UniProt O00329);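 further: reported values are mean percent inhibition of PI3K-delta activity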
Sequence (whole entry): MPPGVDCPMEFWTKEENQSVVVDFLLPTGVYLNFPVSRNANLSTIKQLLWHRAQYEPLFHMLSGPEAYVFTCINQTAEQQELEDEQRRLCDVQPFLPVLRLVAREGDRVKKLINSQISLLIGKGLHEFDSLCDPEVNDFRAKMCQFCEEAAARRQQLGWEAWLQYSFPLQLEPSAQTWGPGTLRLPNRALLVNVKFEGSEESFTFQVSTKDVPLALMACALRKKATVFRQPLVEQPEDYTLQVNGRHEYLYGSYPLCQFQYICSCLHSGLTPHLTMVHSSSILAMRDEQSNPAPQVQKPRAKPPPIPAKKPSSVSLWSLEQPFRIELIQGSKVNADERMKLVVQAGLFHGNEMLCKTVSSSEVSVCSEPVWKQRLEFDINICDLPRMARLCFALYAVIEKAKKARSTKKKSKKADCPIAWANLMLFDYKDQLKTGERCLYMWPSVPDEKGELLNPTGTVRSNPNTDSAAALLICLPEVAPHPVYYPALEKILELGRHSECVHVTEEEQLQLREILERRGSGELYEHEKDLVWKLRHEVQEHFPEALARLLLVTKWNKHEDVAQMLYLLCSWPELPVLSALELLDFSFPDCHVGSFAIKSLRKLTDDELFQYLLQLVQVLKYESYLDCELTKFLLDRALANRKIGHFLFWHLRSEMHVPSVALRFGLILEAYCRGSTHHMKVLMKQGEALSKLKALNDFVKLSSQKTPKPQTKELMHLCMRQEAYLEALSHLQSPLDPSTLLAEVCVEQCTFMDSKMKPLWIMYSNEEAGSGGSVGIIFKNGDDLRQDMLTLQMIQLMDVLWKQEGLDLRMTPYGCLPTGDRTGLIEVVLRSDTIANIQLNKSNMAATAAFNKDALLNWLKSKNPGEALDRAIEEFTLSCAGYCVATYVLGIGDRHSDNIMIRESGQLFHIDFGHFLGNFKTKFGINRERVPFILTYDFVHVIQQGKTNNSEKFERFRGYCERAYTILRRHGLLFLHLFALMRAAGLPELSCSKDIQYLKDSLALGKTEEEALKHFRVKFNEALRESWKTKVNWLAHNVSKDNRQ
Details: at 1 µM
Would you please tag the item condition met when its inhibition is 5% or above, and condition not met when it is below?

Check out these entries, answers already filled in.
Chem smiles: Cc1ccc(Nc2ccnc(Nc3cccc(C(N)=O)c3)n2)cc1O
Class label: condition met

Chem smiles: NS(=O)(=O)c1cccc(Nc2cc(-c3ccc(F)cc3)n[nH]2)c1
Class label: condition not met

Chem smiles: CCn1c(-c2nonc2N)nc2ccc(F)cc21
Class label: condition not met

Chem smiles: Cc1cc(O)cc(C)c1/C=C/c1cncc(C(=O)N(C)C)c1
Class label: condition not met

Prompt: Assess whether reported inhibition for Nc1nccc(C#Cc2cncnc2Nc2ccc(OCc3cccc(F)c3)c(Cl)c2)n1 sits at 5% or higher.
Completion: condition not met

Prompt: For C[C@@H](Oc1cc(-n2cnc3ccc(OC[C@@H](O)CO)cc32)sc1C(N)=O)c1ccccc1Cl then?
Completion: condition met

Prompt: Also, CCn1c(-c2nonc2N)nc2c(C#CC(C)(C)O)nc(OCCNC)cc21 please.
Completion: condition not met

Prompt: Queued: COc1cc2ncnc(Nc3ccc4c(cnn4Cc4ccccc4)c3)c2cc1OC
Completion: condition not met

Prompt: Moving on to the next molecule: CCS(=O)(=O)c1ccc(OC)c(Nc2ncc(-c3cccc(OC)c3)o2)c1
Completion: condition not met

---

Molecular target: Serine/threonine-protein kinase SIK2 (Homo sapiens) (UniProt Q9H0K1);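 further: mean inhibition of SNF1LK2 (QIK) kinase activity, from the GSK PKIS screening panel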
Sequence (Q9H0K1 whole entry, looked up): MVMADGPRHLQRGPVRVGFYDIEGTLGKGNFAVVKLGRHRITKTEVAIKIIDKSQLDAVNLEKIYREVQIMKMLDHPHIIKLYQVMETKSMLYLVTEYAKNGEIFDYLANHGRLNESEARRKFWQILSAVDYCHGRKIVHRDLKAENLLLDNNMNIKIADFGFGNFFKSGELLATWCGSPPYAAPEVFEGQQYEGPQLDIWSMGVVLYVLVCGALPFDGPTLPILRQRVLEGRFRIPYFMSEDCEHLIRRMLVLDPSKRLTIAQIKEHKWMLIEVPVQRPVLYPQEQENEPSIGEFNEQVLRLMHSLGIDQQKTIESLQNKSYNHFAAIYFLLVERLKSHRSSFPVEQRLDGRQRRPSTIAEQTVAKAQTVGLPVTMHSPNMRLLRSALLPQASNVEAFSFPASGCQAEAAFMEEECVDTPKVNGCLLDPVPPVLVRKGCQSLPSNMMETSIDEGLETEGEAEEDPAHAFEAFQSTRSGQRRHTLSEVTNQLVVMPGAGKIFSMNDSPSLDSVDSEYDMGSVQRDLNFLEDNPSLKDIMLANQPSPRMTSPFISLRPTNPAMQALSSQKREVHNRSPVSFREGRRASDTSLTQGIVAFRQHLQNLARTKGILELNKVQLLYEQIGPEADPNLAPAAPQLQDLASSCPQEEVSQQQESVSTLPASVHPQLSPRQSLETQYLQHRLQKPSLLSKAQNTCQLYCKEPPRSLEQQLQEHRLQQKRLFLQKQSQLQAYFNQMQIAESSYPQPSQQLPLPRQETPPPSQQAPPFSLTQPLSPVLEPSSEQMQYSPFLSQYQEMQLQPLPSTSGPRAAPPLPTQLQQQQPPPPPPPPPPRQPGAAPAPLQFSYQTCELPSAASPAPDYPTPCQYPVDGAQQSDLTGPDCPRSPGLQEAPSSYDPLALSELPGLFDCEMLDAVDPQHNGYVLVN
Settings: at 1 µM
Reported inhibition values for the following compounds.
State just the number; it will be interpreted in %.

Chem smiles: Nc1nccc(-c2c(-c3ccc(F)cc3)nn3cc(C(F)(F)F)ccc23)n1
inhibition, %: -1.57
--
Chem smiles: Cc1cc(O)cc(C)c1/C=C/c1cncc(C(=O)N(C)C)c1
inhibition, %: 4.27
--
Chem smiles: Cc1ccc(Nc2ccnc(Nc3cccc(C(N)=O)c3)n2)cc1O
inhibition, %: 53.5

Prompt: Which measured inhibition value corresponds to CN(C)C(=O)O[C@H]1CN[C@H](C#Cc2cc3ncnc(Nc4ccc(OCc5cccc(F)c5)c(Cl)c4)c3s2)C1 ?
Completion: 12.2

Prompt: Cool, now COC(=O)c1cncc(/C=C/c2c(C)cc(O)cc2C)c1
Completion: 20

Prompt: Next record, please: Nc1ccc(C#Cc2cncnc2Nc2ccc(OCc3cccc(F)c3)c(Cl)c2)cc1
Completion: 5.08

Prompt: Also need Cc1ccc2c(c1)/C(=N/Nc1ccc(S(N)(=O)=O)cc1)C(=O)N2 , thanks.
Completion: 10.4

Prompt: // query: COc1ccc(-c2nn3ncccc3c2-c2ccnc(Nc3cccc(C(F)(F)F)c3)n2)cc1
Completion: 8.4

Prompt: Try this compound too: CCn1c(-c2nonc2N)nc2c(C#CC(C)(C)O)nc(OCCNC)cc21
Completion: 9.54

Prompt: Another compound to check: Nc1nccc(-c2c(-c3ccc(F)cc3)ncn2CCCN2CCOCC2)n1
Completion: 11.6
